# Test description: Pharmacokinetic study: plasma and brain concentrations after oral gavage
# Assay type: in vivo, mice
# Condition: male, C57BL/6, mouse, brain, po, 100 mg/kg
Measured parameter: Cmax (ng/mL)
Write the value in ng/mL as a bare number.

Which Cmax is reported for this compound? CC(C)NC(=O)COc1cccc(-c2nc(Nc3ccc4[nH]ncc4c3)c3ccccc3n2)c1
540
